Consider the following compounds; for each one, report its IC50.
target_under_test: P2X7 (Homo sapiens (Human), UniProt Q99572)
Sequence (Q99572 whole entry): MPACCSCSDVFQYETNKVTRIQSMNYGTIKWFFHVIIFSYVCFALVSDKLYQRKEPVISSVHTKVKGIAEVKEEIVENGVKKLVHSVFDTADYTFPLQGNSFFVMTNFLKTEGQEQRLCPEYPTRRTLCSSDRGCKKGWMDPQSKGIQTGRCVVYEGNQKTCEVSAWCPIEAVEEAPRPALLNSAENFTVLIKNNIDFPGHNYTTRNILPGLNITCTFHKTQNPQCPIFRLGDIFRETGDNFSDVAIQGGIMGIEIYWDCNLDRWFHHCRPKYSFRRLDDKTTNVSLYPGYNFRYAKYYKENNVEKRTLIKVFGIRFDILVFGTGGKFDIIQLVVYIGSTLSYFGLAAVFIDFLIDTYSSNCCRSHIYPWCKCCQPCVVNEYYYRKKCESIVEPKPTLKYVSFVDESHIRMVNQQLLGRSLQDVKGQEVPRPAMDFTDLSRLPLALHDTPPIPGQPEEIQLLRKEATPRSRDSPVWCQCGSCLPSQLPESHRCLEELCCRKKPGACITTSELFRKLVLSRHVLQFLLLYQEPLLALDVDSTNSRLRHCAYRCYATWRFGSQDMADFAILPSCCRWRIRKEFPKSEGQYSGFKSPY
assay_comment: P2X7 antagonism in human whole blood, IL-1β release (LPS + Bz-ATP, ELISA)
Format: cell-based
condition_summary: LPS 30 ng/ml + Bz-ATP 1 mM, read-out: Human Whole Blood IC50
Answers are plain numbers, in nM.

Use the examples below as a reference point.
- smiles_repr: "Cc1nc(-c2cnn(C)c2)c2c(n1)[C@H]1CCC[C@@H](C2)N1C(=O)c1ccnc(C(F)(F)F)c1F"
  result_number: 20900
- smiles_repr: "Cc1nc(-c2ccnn2C)c2c(n1)[C@H]1CCC[C@@H](C2)N1C(=O)c1cccc(Cl)c1Cl"
  result_number: 372
- smiles_repr: "Cc1nc(-c2cnn(C)c2)c2c(n1)[C@H]1CCC[C@@H](C2)N1C(=O)c1ccc(F)c(Cl)c1Cl"
  result_number: 1340

Consider now this further compound.
In: Please report IC50 for the following compound: Cc1nc(-c2cnn(C)c2)c2c(n1)[C@H]1CCC[C@@H](C2)N1C(=O)c1ccc(Cl)c(F)c1Cl
Out: 2300
